- Test system: HCT-116 cells
- RUN DESCRIPTION: Human colon tumor HCT-116 cytotoxicity assay
- Format: cell-based
- CONDITIONS USED: HCT-116, read-out: IC50 HCT-116
REPORTED ENDPOINT: pIC50
Lab note — pIC50 values are minus log10 of concentrations in M.

[ask] What pIC50 value was documented for this compound, CCC(C)/C=C/[C@@H](O)[C@H](O)[C@@H](O)[C@@H](OC)C(=O)N[C@H]1CCCCN(C)C1=O (stereo partly shown) [compound 14, bengamide F’] ?
[reply] 5.29

* * *

- RUN DESCRIPTION: MTT cytotoxicity assay in murine macrophage cells
- Format: cell-based
- CONDITIONS USED: mouse, RAW 264.7 murine macrophage cells
REPORTED ENDPOINT: IC50 at 18 h

// solved cases for IC50 at 18 h follow
CCC(C)/C=C/[C@@H](O)[C@H](O)[C@@H](O)[C@@H](OC)C(=O)N[C@H]1CCCCN(C)C1=O (stereo partly drawn) [compound 14, bengamide F’] | > 50 µM
CCCCCCCCCCCCCC(=O)O[C@H]1CC[C@H](NC(=O)[C@H](OC)[C@H](O)[C@@H](O)[C@H](O)/C=C/C(C)C)C(=O)N(C)C1 [compound 7, bengamide B] | > 50 µM

Next item in the queue.
[ask] What IC50 at 18 h value was documented for this compound, CCC(C)/C=C/[C@@H](O)[C@H](O)[C@@H](O)[C@@H](OC)C(=O)N[C@H]1CCCCNC1=O (stereo partly drawn) [compound 13, bengamide E’] ?
[reply] > 50 µM
